assay_explanation: solvent given as SMILES
study_conditions: in CC1CCCO1
Lab note: cut-off is 500 nm. Strictly less in absorption maximum is yes. Exactly 500 nm or more is no.

{"columns": ["compound_string", "answer_label"],
 "data": [
  ["CN(C)c1ccc(C#Cc2ccc(C=O)cc2)cc1", "yes"],
  ["COc1c(-c2c(OC)c3cccc4ccc5oc(=O)cc2c5c43)c2cc(=O)oc3ccc4cccc1c4c32", "yes"],
  ["CC1=CC(/C=C/c2ccc(C)cc2)=[N+]2C1=C(c1ccccc1)c1c(C)cc(/C=C/c3ccc(C)cc3)n1[B-]2(F)F", "no"],
  ["COC(=O)c1ccc(C#Cc2ccc(N(C)C)cc2)cc1", "yes"]
]}

----------
absorption maximum for assorted molecules
assay_explanation: solvent given as SMILES
study_conditions: in CC#N

{"columns": ["molecule", "unit_label", "absorption maximum"],
 "data": [
  ["[BH3-][P+]1(c2ccccc2)c2ccccc2-c2sc3ccccc3c21 (stereo not given)", "nm", 323],
  ["CC(C)(C)c1cc2ccc3cc(C(C)(C)C)cc4c3c2c(c1)c(=O)n1c4nc2c3cc(C(C)(C)C)cc4ccc5cc(C(C)(C)C)cc(c5c43)c21", "nm", 394],
  ["CCOC(=O)c1sc2nc(-c3ccccc3)c(C)c(C#N)c2c1N", "nm", 412],
  ["Brc1ccc(-c2pc3ccccc3s2)cc1 (stereo not given)", "nm", 337],
  ["Cc1cc(=O)[nH]c(=O)[nH]1", "nm", 256],
  ["C[N+]1=C(/C=C/C2=C3Oc4c(cc5c6c4CCCN6CCC5)C(c4ccccc4C(=O)O)=C3CCC2)C(C)(C)c2c1ccc1ccccc21", "nm", 742],
  ["COC(=O)c1cc(=O)n(Cc2ccccc2)c2cc(-c3ccc(N(C)C)cc3)sc12", "nm", 432],
  ["C1=C(c2ccc(-c3cccs3)s2)CCCC1", "nm", 342],
  ["CCCCN1C(=S)c2cccc3c(N(C)C)ccc(c23)C1=S", "nm", 571],
  ["O=Cc1c(O)c(-c2nc3ccccc3s2)cc2ccccc12", "nm", 349]
]}

----------
assay_explanation: solvent given as SMILES
study_conditions: in c1ccccc1
measured_parameter: absorption maximum (nm)

{"columns": ["compound_string", "measured_result"],
 "data": [
  ["CN(C)c1ccc2nc(-c3ccccc3)c(=O)oc2c1", 436],
  ["CC(C)[Si]1(C(C)C)c2cc(C=C(C#N)C#N)ccc2-c2ccc(N(c3ccccc3)c3ccccc3)cc21", 477],
  ["CCOC(=O)c1sc2nc(-c3ccccc3)c(C)c(C#N)c2c1N", 418],
  ["Nc1cccc2c1-c1ccccc1C2=O", 440],
  ["CN(C)c1cccc2c1C(=O)c1ccccc1-2", 445],
  ["F[B-]1(F)n2c(c3cc4ccccc4cc3c2-c2ccccc2)C=C2c3cc4ccccc4cc3C(c3ccccc3)=[N+]21", 765],
  ["CN(C)c1ccc2nc(-c3ccc(C(=O)OC[C@H](NC(=O)OC(C)(C)C)C(=O)OCc4ccccc4)cc3)sc2c1", 397],
  ["Nc1ccccc1C(=O)O", 340],
  ["CC\\C=C/C=C/C=C/C=C\\CCCCCCCC(=O)O", 325.3],
  ["CC1(C)CC(/C=C/c2ccc(-n3ccnc3)cc2)=CC(=C(C#N)C#N)C1", 397],
  ["C#CCNC1=C2C=CC=[N+]2[B-](F)(F)n2cccc21", 422]
]}

----------
assay_explanation: solvent given as SMILES
study_conditions: in ClCCl
Lab note: cut-off is 400 nm. Strictly less in absorption maximum is True. Exactly 400 nm or more is False.

{"columns": ["compound_string", "answer_label"],
 "data": [
  ["CC(C)[Si]1(C(C)C)c2cc(N(C)C)ccc2-c2ccc(C(F)(F)F)cc21", "True"],
  ["c1ccc(-c2cc(-c3ccc(N(c4ccccc4)c4ccccc4)cc3)cc(-c3ccccc3)n2)cc1", "True"],
  ["COc1ccc(/C=C/C2=CC(/C=C/c3ccc(OC)c4ccccc34)=[O+][B-](F)(F)O2)c2ccccc12", "False"],
  ["COc1ccc(C2=[N+]3C(=Nc4c(-c5ccc6ccccc6c5)cc(-c5ccc(OC)cc5)n4[B-]3(F)F)C(c3ccc4ccccc4c3)=C2)cc1", "False"],
  ["CC(C)(C)c1ccc2c(c1)c1cc(C(C)(C)C)ccc1n2-c1ccc(C#Cc2ccc3c4ccc(C#Cc5ccc(C=C(C#N)C#N)cc5)cc4n(-c4ccc(C(F)(F)F)cc4)c3c2)cc1", "True"],
  ["CCOC(=O)c1c(-c2cc3ccccc3oc2=O)nn(-c2cccc(Cl)c2)c1C(=O)OCC", "True"],
  ["Brc1ccc(N2c3c(sc4ccccc34)Sc3sc4ccccc4c32)cc1", "True"],
  ["N#Cc1cc(/C=C/c2ccc(/C=C/c3ccc(N(c4ccccc4)c4ccccc4)cc3)c(C#N)c2)ccc1/C=C/c1ccc(N(c2ccccc2)c2ccccc2)cc1", "False"],
  ["c1ccc(-c2nnc(-c3cc(-n4c5ccccc5c5ccccc54)c(-n4c5ccccc5c5ccccc54)cc3-c3nnc(-c4ccccc4)o3)o2)cc1", "True"],
  ["CCC1=C(C)C2=C(C)c3c(C)c(-c4csc(N5CCOCC5)n4)c(C)n3[B-](F)(F)[N+]2=C1C", "False"],
  ["CCCCN(CCCC)c1ccc(C#Cc2cc(C#Cc3ccc([N+](=O)[O-])cc3)c(C#Cc3ccc(N(CCCC)CCCC)cc3)cc2C#Cc2ccc([N+](=O)[O-])cc2)cc1", "False"],
  ["Cc1ccc(/C2=C3N=C(C(c4ccccc4)=C/3c3ccccc3)/C(c3ccc(C)cc3)=c3\\[nH]/c(c(-c4ccccc4)c3-c3ccccc3)=C(/c3ccc(C)cc3)C3=N/C(=C(/c4ccc(C)cc4)c4[nH]c2c(-c2ccccc2)c4-c2ccccc2)C(c2ccccc2)=C3c2ccccc2)cc1", "False"],
  ["COc1ccc(-c2cc3c(ccc4sc5ccc6sccc6c5c43)s2)cc1", "True"],
  ["CCCCCCCCOc1cc(/C=C/c2cc[n+](Cc3ccc(C)cc3)cc2)c(OCCCCCCCC)cc1/C=C/c1cc[n+](Cc2ccc(C)cc2)cc1", "False"],
  ["Cc1ccc2nc(/C=C/c3ccc(N(C)C)cc3)c(-c3ccccc3)nc2c1", "False"],
  ["Cc1ccc2occ(CC(=O)NN)c2c1", "True"],
  ["CCCCCCc1cc2c3c(c1)c(=C1c4ccccc4Sc4ccccc41)c1cc(CCCCCC)cc4c1N3c1c(cc(CCCCCC)cc1c4=C1c3ccccc3Sc3ccccc31)c2=C1c2ccccc2Sc2ccccc21", "False"],
  ["COCCOCCOCCOCC(COCCOCCOCCOC)Oc1cc(/C=C/c2ccc(C=C3C(=O)c4ccccc4C3=O)cc2)c(OC(COCCOCCOCCOC)COCCOCCOCCOC)cc1/C=C/c1ccc(C=C2C(=O)c3ccccc3C2=O)cc1", "False"],
  ["COc1ccc(C2=C3C(/C=C/c4cc(OC)c(OC)c(OC)c4)=C(C=O)C(C)=[N+]3[B-](F)(F)n3c(/C=C/c4cc(OC)c(OC)c(OC)c4)c(C=O)c(C=Cc4cc(OC)c(OC)c(OC)c4)c32)cc1", "False"],
  ["c1cc2c([nH]c3c4[nH]c5sccc5c4c4nsnc4c23)s1", "False"],
  ["CCCCCCOc1ccc(N(c2ccc(OCCCCCC)cc2)c2ccc(-c3sc(-c4ccc(N(c5ccc(OCCCCCC)cc5)c5ccc(OCCCCCC)cc5)cc4)c4nc(C(=O)OCC)c(C(=O)OCC)nc34)cc2)cc1", "False"]
]}

----------
absorption maximum for assorted compounds
assay_explanation: solvent given as SMILES
study_conditions: in CO
measured_parameter: absorption maximum (nm)

{"columns": ["compound_string", "measured_result"],
 "data": [
  ["CCOC(=O)c1sc(SC)c2c(=O)[nH]nnc12", 384.5],
  ["CN(C)c1ccc2c3c(c(=O)oc2c1)C=c1cc2c(cc1O3)=[N+](CCC(=O)O)CCC2", 591],
  ["COc1ccccc1NC1=CC(=O)c2ccccc2C1=O", 476],
  ["Cc1cc(C)c(B(c2cc(-c3ccccc3)sc2-c2sc(-c3ccccc3)cc2P(=O)(c2ccccc2)c2ccccc2)c2c(C)cc(C)cc2C)c(C)c1", 392],
  ["CCC(=O)c1ccc2cc(N(C)C)ccc2c1", 362],
  ["c1ccc(-c2nc(-c3cccc4ccccc34)n3ccccc23)cc1", 350],
  ["c1ccc2c(-n3cnc4ccccc43)cccc2c1", 284],
  ["COC(=O)c1ccc(C#Cc2ccccc2)cc1", 311.8],
  ["Cc1cnc(NC(=O)C2=C(O)c3ccccc3S(=O)(=O)N2C)s1", 346],
  ["CCN(CC)c1ccc(/C=N/Nc2ccc(C#N)cc2)c(O)c1", 368],
  ["CCOC(=O)/C=C/c1ccc(N(C)C)cc1", 362],
  ["CCc1c(C)[nH]c(C2=[N+]3C(=Cc4c(C)cc(C)n4[B-]3(F)F)c3ccccc32)c1C", 610]
]}

Data origin: the Deep4Chem optical property database
